conditions: buffer; pH 7.4; 200.0 µM
Could you please report measured log10 solubility kinetic for the items listed next?
Transform log10 | Measure solubility kinetic | Unit µg/mL

COc1cccc(/C=C2\NC(=O)NC2=O)c1O	1.51

Give measured log10 solubility kinetic for every item shown.
1. Cc1cc2c(SCC(=O)NC3CCCCC3)ncnc2s1
2. C=CCOC(=O)C1=C(C)NC(C)=C(C(=O)OCC=C)C1c1ccco1
3. CC1CC(C)CN(C(=O)COC(=O)c2ccc3c(c2)OCCO3)C1 (configuration not stated)
4. Cc1ccc(/C=C2\C(=O)NC(=S)N(c3ccc(F)cc3)C2=O)o1
5. Cc1ncn2cc(-c3ccc(Cl)cc3Cl)[nH]c(=O)c12
6. COC(=O)c1ccc(CNC(=O)c2coc3ccccc3c2=O)cc1

0.64
0.65
1.69
1.66
0.45
0.57

Please give log10 solubility kinetic for each item listed below.
1. COc1ccc(CCC(=O)OCC(=O)Nc2sccc2C(N)=O)cc1OC
2. O=C(O)CSc1nc2ccccc2nc1Cc1ccccc1F

1. 1.32
2. 1.68

====

conditions: buffer; pH 7.4; 200.0 µM
EXPERIMENTAL ENDPOINT: solubility kinetic

// known answers, use as guide
CC(C)NC(=O)c1ccc(CSCc2ccccc2Cl)o1	> 48.6 µg/mL
Cn1cc2cc(NC(N)=S)ccc2n1	> 30.9 µg/mL
Cc1ccc(Cl)c2sc(NC(=O)C3=COCCO3)nc12	1.1 µg/mL
COCCCNC(=S)Nc1cccc(SC)c1	> 40.6 µg/mL
C[C@H](NC(N)=O)C(=O)OCC(=O)NCc1cccs1	> 42.8 µg/mL
CC1(C)CC(=O)C=C(Nc2ccc(Cl)cc2)C1	34.2 µg/mL

# return solubility kinetic for each item in the list
1. O=[N+]([O-])c1cc(-c2cnc3ccccc3n2)ccc1Cl
2. Cc1nccn1CC(=O)N/N=C/c1cc(Br)cs1

< 0.2 µg/mL
> 49.1 µg/mL

Answer for every listed entry: what is its solubility kinetic? The entries follow.
1. CC1C(=O)Nc2ccccc2N1C(=O)c1ccc(O)cc1 (stereo not drawn)
2. CC1=CCC2C(=O)N(c3ccc(OC(=O)c4ccco4)cc3)C(=O)C2C1 (stereo not drawn)
3. Cc1nnc(SC(C)C(=O)NCC2CCCO2)s1 (stereo not drawn)
4. COc1ccc(C(=O)Nc2cccc(OC(=O)c3ccco3)c2)cc1
5. COc1ccc(NC(=O)COC(=O)CCSc2ccccc2)cc1

> 42.3 µg/mL
21.5 µg/mL
> 43.1 µg/mL
3.2 µg/mL
10.6 µg/mL

====

I'd appreciate it if you could supply solubility kinetic values for the items below.
settings: buffer; pH 7.4; 200.0 µM
One number for each entry, in µg/mL.

Worked cases, answers included:
Cc1ccnc(N(C(=O)Nc2ccccc2)C2=NCC(C)(C)S2)c1	25.3
COCCN1Cc2cc(=O)n3c([nH]c4ccccc43)c2C1=N	5.1

Let us examine a further case.
Hello, please tell me recorded solubility kinetic for this one: "COc1nc(C)cc(C)c1S(=O)(=O)c1ccccc1C"
4.8

====

conditions: buffer; pH 7.4; 200.0 µM
EXPERIMENTAL ENDPOINT: solubility kinetic

Cc1ccc(C(=O)O)cc1NS(=O)(=O)c1ccc2ccccc2c1	> 51.2 µg/mL

Each molecule below has a reported value. Please supply its solubility kinetic.
1. CCOc1ccc(NC(=O)CN2C(=O)CSC2=O)cc1
2. O=C(COC(=O)c1ccc2ccccc2n1)c1ccccc1
3. Cc1ccc(SC(C)C(=O)N2CCC(C(N)=O)CC2)cc1 (stereo unspecified)
4. Cc1nc2ccccn2c(=O)c1NC(=O)c1cccs1
5. Cc1ccc(NC(=O)CCNC(=O)c2ccco2)cc1F

1. > 44.1 µg/mL
2. 42.3 µg/mL
3. 30.4 µg/mL
4. > 42.8 µg/mL
5. > 43.5 µg/mL

====

conditions: buffer; pH 7.4; 200.0 µM
Hi there, I'd appreciate the recorded solubility kinetic for every entry that follows.
Numbers only, in µg/mL.

Below, 5 compounds whose answers are already recorded.
CC(C)S(=O)(=O)c1cnc(-c2ccccn2)nc1N	37.6
CCCN1CCC(N2CCN(c3ccc([N+](=O)[O-])cc3)CC2)CC1	32.3
Cc1ccc(CN2CCCN(Cc3ccccc3C)S2(=O)=O)cc1	0.5
COc1cc(CCC(=O)Nc2ncc(C)s2)cc(OC)c1OC	18.8
CC1CCc2sc(C(=O)OCC(=O)NC(C)C)cc2C1 (centres undefined)	1.2

# return solubility kinetic for each item in the list
1. Cc1ccc2[nH]c(C)c(CCNCc3ccco3)c2c1.Cl
2. Cc1ccc(OCC(=O)Nc2ccc(CN3CCOCC3)cc2)cc1
3. COc1cc(/C=C/C(=O)OCC(=O)Nc2cc(S(=O)(=O)N3CCCC3)ccc2Cl)cc(OC)c1OC
4. O=C1CN=C(c2ccccc2)c2c(sc3c2CCCC3)N1

1. 42.9
2. 27.8
3. 4.3
4. 36.3

====

details: buffer; pH 7.4; 200.0 µM
EXPERIMENTAL ENDPOINT: log10(solubility kinetic) (log10 of the value in µg/mL)
// do not treat as linear: log10 of solubility kinetic, unit µg/mL

Below, 5 compounds whose answers are already recorded.
CCCc1cc(=O)[nH]c(SCC(=O)Nc2sc3c(c2C(N)=O)CCCC3)n1	0.95
COc1ccc(N(C)C(=O)c2sc(Cl)nc2C)cc1	1.63
CC(=O)OCCNc1cc(SC(C)C)c2nonc2c1[N+](=O)[O-]	0.61
CC(C)Oc1ccc(C(=O)Nc2ccc3c(c2)n(C)c(=O)n3C)cc1	1.13
CCOc1ccccc1NC(=O)c1ccc2[nH]c(C)c(C)c2c1	0.45

Tell me its log10(solubility kinetic) given "COc1cc([N+](=O)[O-])ccc1NC(=O)CSc1nccn1C" as the entry.
1.63

====

details: buffer; pH 7.4; 200.0 µM
So I've got a bunch of molecules here, and I need their solubility kinetic values.
Answers are plain numbers, in µg/mL.

For orientation, consider the following solved cases.
Nc1ccc(C(=O)OCc2ccncc2)cc1[N+](=O)[O-]	14
CC(C)(C)c1cc(NS(=O)(=O)c2cccs2)no1	30.8
Cc1cc2oc(=O)cc(C)c2cc1NC(=O)CCl	39.4
CC(=O)c1sc(-c2ccccc2)cc1NS(=O)(=O)c1ccc(C)cc1	1.1
Cc1cc(Br)cc(Cl)c1OC(=O)c1cnccn1	47.4

Working through the 4 molecules below one at a time, give solubility kinetic for each.
1. Cc1ccc(N2C(=S)NC3c4ccccc4OC2(C)C3C(=O)N(C)C)cc1 (configuration not stated)
2. CN(C)c1ccc(C(=O)OCc2cc(=O)n3ccsc3n2)cc1
3. O=C(Nc1ccccc1Cl)OC1CN2CCC1CC2 (configuration not stated)
4. O=C(NCC1CCCO1)c1cccc(S(=O)(=O)Nc2cccc(C(F)(F)F)c2)c1 (configuration not stated)

1: 50.9; 2: 3.8; 3: 38.1; 4: 2.1

====

conditions: buffer; pH 7.4; 200.0 µM
Use Fulfilled when the recorded solubility kinetic is no lower than 20 µg/mL; use Not fulfilled when it is lower.

Before answering, review these 8 worked examples.
Cc1ccsc1C(=O)NC(C)c1ccccc1 (stereo unspecified)	Fulfilled
O=C(c1c(F)c(F)c(F)c(F)c1F)N1CCN(Cc2ccc3c(c2)OCO3)CC1	Not fulfilled
COC(=O)c1c(C)[nH]c(C(=O)/C=C/c2ccccc2F)c1C	Not fulfilled
CCN1CCN(S(=O)(=O)c2c(C)cc(C)cc2C)CC1	Fulfilled
COC(=O)C1CCN(c2ccc([N+](=O)[O-])cc2[N+](=O)[O-])CC1	Fulfilled
C[C@H](NCc1c[nH]c2ccccc12)c1ccccc1	Fulfilled
O=C(COc1ccccc1)N1CCN(C(=O)c2ccccc2F)CC1	Fulfilled
COC(=O)Cc1c(O)ccn(CCc2ccc(OC)c(OC)c2)c1=O	Fulfilled

// inclusive: solubility kinetic at least 20 µg/mL? input: "Cn1c(=O)oc2cc(S(=O)(=O)Nc3ccc(F)cc3)ccc21"
Not fulfilled

Is reported solubility kinetic greater than or equal to 20 µg/mL here: "CC(=O)/C(C=Nc1noc(C)c1Br)=C(\C)O"
Fulfilled

====

conditions: buffer; pH 7.4; 200.0 µM
EXPERIMENTAL ENDPOINT: solubility kinetic (µg/mL)
Numbers only, in µg/mL.

CC1CCC(C(C)C)C(=O)/C1=C/c1ccc(N)cc1 (stereo not drawn)	3.3
O=C(O)Cn1cc(CN2CCOCC2)c2ccccc21	30
COc1ccc(Cc2nc3ccccc3n2C)cc1.Cl	42.3
CN(CC(=O)NCC1COc2ccccc2O1)S(=O)(=O)c1ccc(Cl)cc1 (stereo not drawn)	17.9
COc1ccc(NC(=O)Nc2ccc3nonc3c2)cc1	5.3

Hi, could you look up solubility kinetic for each item in my list?
1. O=C(NC(=S)Nc1ccc(CN2CCOCC2)cc1)c1cccc(F)c1
2. Cc1ccc2nc(C)c3c(c2c1)N(c1ccc(F)cc1)CC3
3. Cc1ccc(S(=O)(=O)N2CCCCC2)cc1C(=O)NCc1ccc(S(N)(=O)=O)cc1
4. O=C(Nc1ccccc1)Nc1ccc2ncoc2c1
5. Cc1cc(C)c(S(=O)(=O)N2CCCc3ccccc32)c(C)c1
6. COc1ccc(CNc2cc(NCCCO)c([N+](=O)[O-])c3nonc23)cc1
7. Cc1ccc(OCCNCc2ccccc2)c(C)c1.O=C(O)C(=O)O
8. Cc1ccc(S(N)(=O)=O)cc1NC(=O)c1ccc2c3c(cccc13)CC2

[27, 40.6, 2.8, 27.5, 1.8, 45.7, 45.8, 3.1]

Batch of 6 compounds: report solubility kinetic for each.
1. Cc1nc(N)ncc1C(=O)Nc1ccccc1
2. N=C1SCC(=O)N1c1ncc(Cc2ccccc2Cl)s1
3. CCCn1c(N)c(N(CCOC)C(=O)CSc2c(Cl)cccc2Cl)c(=O)[nH]c1=O
4. Cc1ccc(NC(=O)CN(CCc2ccccc2)S(C)(=O)=O)cc1
5. COc1cccc(NC(=O)c2nc(S(C)(=O)=O)ncc2Cl)c1
6. O=[N+]([O-])c1ccc2nc(-c3ccccn3)[nH]c2c1

19
2.2
53
51.6
33.6
5

List solubility kinetic for every entry below, keeping the order given.
1. COc1cccc(OC)c1C(=O)Nc1ccc(Br)c(C(=O)c2ccccc2)c1
2. CN(Cc1cnccn1)Cc1nc(Cc2ccccc2Cl)no1
3. Cc1ccc(Nc2nc(N)c([N+](=O)[O-])c(NCc3ccccc3)n2)cc1
4. Cc1ccccc1NC(=O)/C(C#N)=C/c1ccc[nH]1

[4.2, 43.9, 0.3, 2.9]
